In this section, each of the substances is paired with its reported % inhibition of SMAD7 mRNA expression.
- Tested on: human SMAD7 mRNA
- TEST_METHOD_NOTES: Antisense inhibition of human SMAD7 mRNA expression in Hep3B cells by 5-10-5 MOE gapmers, single concentration, electroporation, RT-PCR (Example 1, Study 1 and 2)
- Assay type: cell-based
- RUN_CONDITIONS: electroporation, 15,000 nM antisense oligonucleotide (Study 2), 5-10-5 MOE gapmers targeting SEQ ID NO: 1 and 2
Strand notation (5' to 3'): a small letter for the sugar, then the base; units joined by * are phosphorothioate-linked, units joined directly phosphodiester-linked; [ ] holds rarer units or linkages, { } end groups; capitals alone tell only the bases. e = 2'-O-(2-methoxyethyl) (MOE); [5mC] = 5-methylcytosine; d = 2'-deoxy (DNA)
I only need the number, in %, no unit after it.

These recorded examples may help you get a feel for the data.
| SUBSTANCE | % inhibition of SMAD7 mRNA expression [%] |
| --- | --- |
| 771945 (antisense eT*eT*eA*eT*eG*dT*dG*dT*d[5mC]*dT*d[5mC]*dA*dA*dA*dT*eA*eG*eA*eT*eG) [compound 771945] | 0 |
| 771600 (antisense eT*eG*eG*e[5mC]*e[5mC]*dA*dA*dA*dA*dA*dA*dG*dA*dA*dA*eG*eA*e[5mC]*eG*e[5mC]) [compound 771600] | 0 |
| 771475 (antisense e[5mC]*eG*eT*e[5mC]*eA*dG*d[5mC]*dT*dG*dG*dA*dT*dG*d[5mC]*d[5mC]*eG*e[5mC]*eA*eG*e[5mC]) [compound 771475] | 26 |
| 771546 (antisense eT*eA*e[5mC]*e[5mC]*eT*dG*d[5mC]*d[5mC]*d[5mC]*d[5mC]*dT*dT*d[5mC]*dT*dT*e[5mC]*e[5mC]*eA*eA*eA) [compound 771546] | 26 |

Memo: 771697 (antisense e[5mC]*eA*e[5mC]*eT*e[5mC]*dT*d[5mC]*d[5mC]*d[5mC]*dA*dG*dG*dA*dG*dG*eG*eT*eA*eT*eG) [compound 771697] , reported % inhibition of SMAD7 mRNA expression: 5

Memo: 771570 (antisense eT*eG*eG*eG*eA*d[5mC]*dT*dG*d[5mC]*dA*dA*dA*d[5mC]*d[5mC]*dT*e[5mC]*eT*e[5mC]*eT*eG) [compound 771570] , reported % inhibition of SMAD7 mRNA expression: 60

Memo: 771905 (antisense eT*eA*eG*eG*e[5mC]*dG*dA*dA*dT*d[5mC]*d[5mC]*d[5mC]*dT*d[5mC]*d[5mC]*e[5mC]*e[5mC]*e[5mC]*eA*eA) [compound 771905] , reported % inhibition of SMAD7 mRNA expression: 0

Memo: 771435 (e[5mC]*eA*eG*e[5mC]*eT*dG*d[5mC]*d[5mC]*dG*d[5mC]*dT*d[5mC]*d[5mC]*dT*dT*e[5mC]*eA*eG*eT*eT; antisense) [compound 771435] , reported % inhibition of SMAD7 mRNA expression: 29
